For each entry below, report its optical density value.
# Subject of test: human ACVR2A (human, UniProt P27037 20-135, limits assumed)
# Sequence (P27037 20-135 limits assumed): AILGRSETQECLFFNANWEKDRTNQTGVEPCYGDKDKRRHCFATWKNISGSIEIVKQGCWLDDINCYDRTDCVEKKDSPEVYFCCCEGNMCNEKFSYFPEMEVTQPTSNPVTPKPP
# Assay text: ELISA; also: test concentration or dose not given here

Ask | Consider the binder 375_B04 (antibody, V domains shown, VH/VL only) VH: EVQLLESGGGLVQPGGSLRLSCAASGFTFDSYSMNWVRQAPGKGLEWVANINYNGGYTGYADSVKGRFTISRDNSKNTLYLQMNSLRAEDTAVYYCARSATWHDTHLDYWGQGTLVTVSS VL: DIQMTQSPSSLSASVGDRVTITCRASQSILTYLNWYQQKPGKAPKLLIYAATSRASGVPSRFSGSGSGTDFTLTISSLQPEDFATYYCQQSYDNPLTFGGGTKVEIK and give its measured optical density.
Reply | 3.69 OD

Ask | Then 373_F03 (antibody, V domains shown, VH/VL only) VH: EVQLLESGGGLVQPGGSLRLSCAASGFTFDSYSMNWVRQAPGKGLEWVANINYNSGYTGYADSVKGRFTISRDNSKNTLYLQMNSLRAEDTAVYYCARSATWHDTHLDYWGQGTLVTVSS VL: DIQMTQSPSSLSASVGDRVTITCRASQSILTYVNWYQQKPGKAPKLLIYAATSRHSGVPSRFSGSGSGTDFTLTISSLQPEDFATYYCQQSYDSPLTFGGGTKVEIK ?
Reply | 3.65 OD

Ask | Then 376_E08 (antibody, V domains shown, VH/VL only) VH: EVQLLESGGGLVQPGGSLRLSCAASGFTFSDYGMNWVRQAPGKGLEWVAGINYNGGYTSYADSVKGRFTISRDNSKNTLYLQMNSLRAEDTAVYYCARSANWHDTALDYWGQGTLVTVSS VL: DIQMTQSPSSLSASVGDRVTITCRASQSIVSYVNWYQQKPGKAPKLVIYAATSRASGVPSRFSGSGSGTDFTLTISSLQPEDFATYYCQQSYDSPLTFGGGTKVEIK ?
Reply | 3.64 OD

Ask | Then 369_B02 (antibody, V domains shown, VH/VL only) VH: EVQLLESGGGLVQPGGSLRLSCAASGFTFDSYSMNWVRQAPGKGLEWVSGINYNGGYKSYADSVKGRFTISRDNSKNTLYLQMNSLRAEDTAVYYCARSATWHDTHLDYWGQGTLVTVSS VL: DIQMTQSPSSLSASVGDRVTITCRASQSILSYLNWYQQKPGKAPKLVIYAATSRASGVPSRFSGSGSGTDFTLTISSLQPEDFATYYCQQSYNLPLTFGGGTKVEIK ?
Reply | 3.4 OD

Ask | Then 374_C11 (antibody, V domains shown, VH/VL only) VH: EVQLLESGGGLVQPGGSLRLSCAASGFTFSSYSMNWVRQAPGKGLEWVAGINYNSGYKGYADSVKGRFTISRDNSKNTLYLQMNSLRAEDTAVYYCARSATWHDTHLDYWGQGTLVTVSS VL: DIQMTQSPSSLSASVGDRVTITCRASQSILTYLNWYQQKPGKAPKLLIYAATSRASGVPSRFSGSGSGTDFTLTISSLQPEDFATYYCQQSYESPLTFGGGTKVEIK ?
Reply | 3.64 OD
